Molecular target: T1, IL13RA2 Protein, Human, Recombinant (ECD)-His tag (human, UniProt Q14627 27-343)
T1 construct: extracellular domain; also called human recombinant protein extracellular domain; human IL13Ra2-His6
T1 sequence: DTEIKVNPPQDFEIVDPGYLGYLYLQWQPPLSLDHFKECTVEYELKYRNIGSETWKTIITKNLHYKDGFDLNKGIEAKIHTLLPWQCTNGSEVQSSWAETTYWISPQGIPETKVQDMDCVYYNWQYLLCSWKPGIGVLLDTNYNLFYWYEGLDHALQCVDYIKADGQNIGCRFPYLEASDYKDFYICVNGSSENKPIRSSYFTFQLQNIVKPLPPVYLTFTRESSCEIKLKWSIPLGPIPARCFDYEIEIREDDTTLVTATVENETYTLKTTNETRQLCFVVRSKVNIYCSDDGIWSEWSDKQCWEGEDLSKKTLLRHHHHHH
Assay: BLI; biotinylated VHH captured on streptavidin biosensor, antigen 1 uM in solution
Method: Binding Affinity for the VH domains with IL13Rα2 are calculated as follows: Biotinylated VHHs were individually captured on streptavidin biosensors. VHH-captured biosensors were dipped in wells containing antigen and the binding response was measured. Biosensors were later dipped in buffer wells to observe the dissociation of bound antigen from captured VHH. (Schematic representation of the process depicted in FIG. 26, upper left corner). […]
measurement-name: pKd
pKd (log units): -log10 of the concentration in mol/L.

# input binder: VH57f5 (VHH, biotinylated (site not stated), Expressed in E. coli and 6xHIS purified; also called VH57f5 Biotin; Anti-IL13Rα2 VH57) VHH: QVQLQESGGGLVQPGGSLRLSCAASGSIFNTNGMGWYRQAPGKQRERVAGISSGGNTVYAASVEGRFTISRDNAKNTGYLQMNNLKPEDTAVYYCRVAGRQDDYWGQGTQVTVSS ; wanted: its pKd
8.74
